Values were extracted from the RNAGym collection of RNA variant scans (doi:10.1073/pnas.2313332121).

B1: TPR t1 (parent)
chain: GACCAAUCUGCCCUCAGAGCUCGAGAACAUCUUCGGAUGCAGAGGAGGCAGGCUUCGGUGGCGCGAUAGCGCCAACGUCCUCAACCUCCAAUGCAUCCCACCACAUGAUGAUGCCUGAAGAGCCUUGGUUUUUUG

- Variants of: B1
- Assay Remarks: polymerase ribozyme fitness, log enrichment relative to wild type (log ratio); higher = more active; in vitro selection for triplet polymerase activity
Quantity Measured: polymerase ribozyme fitness (log ratio)

> print(dat)
          variant.label                        quantity.measured  observed.measurement
1             G35U G63U  polymerase ribozyme fitness (log ratio)                 -6.36
2            A24G U112G  polymerase ribozyme fitness (log ratio)                 -1.29
3              A6G G69A  polymerase ribozyme fitness (log ratio)                 -2.86
4  G39U G45C U87A C114U  polymerase ribozyme fitness (log ratio)                 -6.43
5             C73G C86G  polymerase ribozyme fitness (log ratio)                 -2.52
6              A2C C53A  polymerase ribozyme fitness (log ratio)                  -1.9
7           G110U U130C  polymerase ribozyme fitness (log ratio)                 -1.04
